Data origin, for the record: patent US9593197B2

assay: MTT cytotoxicity assay before and after UV treatment; details: human, HeLa cells
pIC50: −log10 of the molar value.
property: pIC50

Q) State the recorded pIC50 for this entry: CC[C@@]1(O)C(=O)OCc2c1cc1n(c2=O)Cc2cc3cc(O)ccc3nc2-1 [HCPT, 10-hydroxycamptothecin]
A) 5.14 to 5.21
